The measured values listed here are drawn from ChEMBL document CHEMBL2331205.

So I've got a bunch of compounds here, and I need their CC50 at 48 h values.
# Assay procedure: Cytotoxicity against human HepG2(2.2.15) cells compound treated for 48 hrs followed by incubation for 9 days by MTT assay
# Format: cell-based
For clarity, give the value followed by its unit.

The cases that follow already have their CC50 at 48 h on record.
Smiles representation	CC50 at 48 h
COc1ccc2c(=O)c(/C=C/C(=O)Nc3ccccc3OC)coc2c1	1050 µM
COc1ccc2c(=O)c(/C=C/C(=O)NCc3ccc(F)cc3)coc2c1	133 µM

Quick batch: CC50 at 48 h for everything below.
1. COc1ccc2c(=O)c(/C=C/C(=O)Nc3ccc(Cl)cc3)coc2c1
2. COc1ccc2c(=O)c(/C=C/C(=O)Nc3ccccc3Cl)coc2c1
3. COc1ccc2c(=O)c(/C=C/C(=O)Nc3ccc(F)cc3)coc2c1
4. O=C(/C=C/c1coc2cc(O)ccc2c1=O)NCc1ccc(F)cc1F
5. COc1ccc2c(=O)c(/C=C/C(=O)NCc3cccc(F)c3)coc2c1
6. Cc1ccc(CNC(=O)/C=C/c2coc3cc(O)ccc3c2=O)cc1
7. COc1ccc2c(=O)c(/C=C/C(=O)Nc3cc(C)ccc3C)coc2c1
8. COc1ccc(NC(=O)/C=C/c2coc3cc(OC)ccc3c2=O)cc1

stdout:
["272 µM", "1010 µM", "743 µM", "470 µM", "475 µM", "501 µM", "1100 µM", "718 µM"]

stdin: So what does the record say about CC50 at 48 h for COc1ccc2c(=O)c(/C=C/C(=O)NCc3ccccc3)coc2c1 ?
stdout: 376 µM

====

Assignment: determine reported CC50 at 48 h for the given molecules.
# Assay procedure: Cytotoxicity against human HepG2(2.2.15) cells compound treated for 48 hrs followed by incubation for 9 days by MTT assay
# Type: cell-based
Answers are plain numbers, in µM.

Smiles representation	CC50 at 48 h [µM]
O=C(/C=C/c1coc2cc(O)ccc2c1=O)NCc1ccc(F)cc1	357

Please supply CC50 at 48 h for each of the following items, keeping them in order.
1. COc1ccc(CNC(=O)/C=C/c2coc3cc(OC)ccc3c2=O)cc1
2. COc1ccc2c(=O)c(/C=C/C(=O)Nc3ccccc3C)coc2c1

stdout:
1. 43
2. 59.7

Please give CC50 at 48 h, item by item, for the list that follows.
1. COc1ccc2c(=O)c(/C=C/C(=O)Nc3cccc(C)c3)coc2c1
2. COc1ccc(CNC(=O)/C=C/c2coc3cc(O)ccc3c2=O)cc1
3. COc1ccc2c(=O)c(/C=C/C(=O)NCc3ccccc3F)coc2c1
4. O=C(/C=C/c1coc2cc(O)ccc2c1=O)NCc1ccccc1

stdout:
[554, 718, 146, 436]

Provide the reported CC50 at 48 h of each entry below, same order.
1. COc1ccc2c(=O)c(/C=C/C(=O)NCCc3cccc(F)c3)coc2c1
2. COc1ccc2c(=O)c(/C=C/C(=O)NCc3ccc(F)cc3F)coc2c1
3. COc1ccc2c(=O)c(/C=C/C(=O)Nc3cccc(Cl)c3)coc2c1
4. O=C(/C=C/c1coc2cc(O)ccc2c1=O)Nc1ccccc1

stdout:
[1030, 79.2, 1100, 821]

====

# System: Huh-7
# Assay procedure: Growth inhibition of human HuH7 cells after 48 hrs by MTT assay
# Type: functional, cell-based
# Condition details: Huh-7, 48 h
Could you please report measured pIC50 for the items listed next?
Answers are plain numbers, as −log10 of the molar value.

Guide cases for pIC50, answers given:
Smiles representation	pIC50
Cc1ccccc1NC(=O)/C=C/c1coc2cc(O)ccc2c1=O	4.95
COc1ccc(CNC(=O)/C=C/c2coc3cc(O)ccc3c2=O)cc1	5.07
COc1cccc(NC(=O)/C=C/c2coc3cc(OC)ccc3c2=O)c1	4.95
COc1ccc2c(=O)c(/C=C/C(=O)Nc3cc(C)ccc3C)coc2c1	4.95
COc1ccc2c(=O)c(/C=C/C(=O)NCc3ccccc3)coc2c1	4.87

stdin: Can you share its pIC50? I mean this compound: COc1ccc2c(=O)c(/C=C/C(=O)Nc3ccccc3)coc2c1
stdout: 5.04
